- TARGET DESC: NRZ D79A (zebrafish (Danio rerio)) (UniProt Q8UWD5)
- TEST: ITC; MicroCal iTC200, 25 °C; NRZ (wt, D79A or R86A) at 30 μM in 25 mM HEPES pH 7.5, 150 mM NaCl, 2 mM BME; BH3 peptide at 300 μM titrated in 19 injections of 2.0 μl; triplicate
Criterion met if Kd is below 200 nM. Criterion not met if not; exact matches included in Criterion not met.

> print(dat)
                                     binder        label.class
1  EARAAREMAAELIRIADLLEQSVLSQAA [zBid BH3 motif peptide]  Criterion not met

In the following, a different binder is considered.
In plain terms, does ALWAAKKYGQQLRRMSDEFDKGQMKR [zBad BH3 motif peptide] come in under 200 nM for Kd?
Criterion not met

Where do these numbers come from? They come from paper PMC6148235.
